- run description: Stability tests of modified 2′-deoxyguanosines in NDS buffer vs. 2′-deoxyguanosine (nitrite-mediated deamination)
- Format: physicochemical
- study conditions: nitrite deprotection solution (sodium nitrite in 1M sodium acetate, pH 5.5), room temperature, over 4 days, HPLC or LC/MS
quantity name: stability in NDS compared with 2′-deoxyguanosine

Nc1nc2c(c(C(F)(F)F)cn2[C@H]2C[C@H](O)[C@@H](CO)O2)c(=O)[nH]1	slightly more stable
CS(=O)(=O)c1cn(C2CC(O)C(CO)O2)c2nc(N)[nH]c(=O)c12 (stereo not shown)	slightly more stable
N#Cc1cn([C@H]2C[C@H](O)[C@@H](CO)O2)c2nc(N)[nH]c(=O)c12	slightly more stable
